test system: Aspergillus fumigatus NCPF2010; experiment: Broth microdilution assay (modified EUCAST); format: cell-based; conditions: Aspergillus fumigatus, NCPF2010, read-out: MIC75 against Aspergillus fumigatus isolate NCPF2010
EXPERIMENTAL_ENDPOINT: MIC (µM)
Please give a number only; it is taken to be in µM.

q: Notebook entry, Aspergillus fumigatus NCPF2010 assay: MIC of Cc1nc(N2CCN(c3ccc(C(=O)Nc4ccc(F)cc4)cc3)CC2)ccc1OC[C@@H]1CO[C@@](Cn2cncn2)(c2ccc(F)cc2F)C1 [Example 3] = ?
a: 0.018

q: Notebook entry, Aspergillus fumigatus NCPF2010 assay: MIC of N#Cc1ccc(NC(=O)c2ccc(N3CCN(c4ccc(OCC5CO[C@@](Cn6cncn6)(c6ccc(F)cc6F)C5)c(F)c4)CC3)cc2)c(F)c1 (stereo in doubt) [Example 24] = ?
a: 0.0099

q: Notebook entry, Aspergillus fumigatus NCPF2010 assay: MIC of Cc1cc(N2CCN(c3ccc(C(=O)Nc4ccc(S(N)(=O)=O)cc4)cc3)CC2)ccc1OC[C@@H]1CO[C@@](Cn2cncn2)(c2ccc(F)cc2F)C1 [Example 19] = ?
a: 0.0166

q: Notebook entry, Aspergillus fumigatus NCPF2010 assay: MIC of Cc1cc(N2CCN(c3ccc(C(=O)Nc4ccc(OC(F)F)c(F)c4)cc3)CC2)ccc1OC[C@@H]1CO[C@@](Cn2cncn2)(c2ccc(F)cc2F)C1 [Example 25] = ?
a: 0.0845

q: Notebook entry, Aspergillus fumigatus NCPF2010 assay: MIC of Cc1cc(N2CCN(c3ccc(C(=O)Nc4ccc(F)cc4)cc3)CC2)cc(C)c1OC[C@@H]1CO[C@@](Cn2cncn2)(c2ccc(F)cc2F)C1 [Example 15] = ?
a: 0.029

q: Notebook entry, Aspergillus fumigatus NCPF2010 assay: MIC of Cc1cc(N2CCN(c3ccc(C(=O)Nc4ccc(C#N)cc4F)cc3)CC2)ccc1OC[C@@H]1CO[C@@](Cn2cncn2)(c2ccc(F)cc2F)C1 [Example 23] = ?
a: 0.0126
